tested on: HepG2; assay: GSK_TCMDC: Percent inhibition of human HepG2 cell line. Test compounds present at 10uM.; type: functional
QUANTITY: Inhibition (%)
Return type: number; implicit unit %.

Incoming: Fill in: Inhibition of COc1cc2nc(Nc3ccc(N4CCOCC4)cc3)nc(N)c2cc1OC.Cl is ___
Outgoing: 8

Incoming: Fill in: Inhibition of CN1CCCN(Cc2ccc(-c3cccc(NC(=O)c4ccc(F)cc4)c3)cc2)CC1.O=C(O)C(F)(F)F is ___
Outgoing: 29

Incoming: Fill in: Inhibition of Cc1ccc(-n2nc3ccc(NC(=O)c4ccc([N+](=O)[O-])o4)cc3n2)cc1C is ___
Outgoing: 20

Incoming: Fill in: Inhibition of CC1(C)S(=O)(=O)CC(O)CS1(=O)=O is ___
Outgoing: 8

Incoming: Fill in: Inhibition of O=C(NCc1cccc(F)c1)Nc1ccc(-c2cccc(-c3nc4ccccc4[nH]3)c2)cc1 is ___
Outgoing: 14

Incoming: Fill in: Inhibition of COc1cc2nccc(Nc3ccc(NC(=O)c4ccc(C)cc4)c(O)c3)c2cc1OC.Cl is ___
Outgoing: 96

Incoming: Fill in: Inhibition of CC(=O)Nc1ccc(CN(Cc2ccc(F)cc2)Cc2cccc(Oc3ccccc3)c2)cc1 is ___
Outgoing: 0

Incoming: Fill in: Inhibition of CC(=O)N1N=C(c2[nH]c3ccc(Br)cc3c2C)OC1c1ccccc1 (configuration not stated) is ___
Outgoing: 8

Incoming: Fill in: Inhibition of COc1ccc(N2CCN(c3nc(N)c4cc(OC)c(OC)cc4n3)CC2C)cc1.Cl (configuration not stated) is ___
Outgoing: 8

Incoming: Fill in: Inhibition of CCC(CC)C(CC(=O)NC(C)(C)CCc1ccccc1OC)Nc1ccc(C#N)c2ccccc12 (configuration not stated) is ___
Outgoing: 9

Incoming: Fill in: Inhibition of O=C(c1cc(OC(F)(F)F)ccc1O)N1CCN(c2ccccc2)CC1 is ___
Outgoing: 0

Incoming: Fill in: Inhibition of CCOc1ccc(C(C)NC(=O)C2COc3ccccc3O2)cc1OCC (configuration not stated) is ___
Outgoing: 0

---

system: Plasmodium falciparum; test: GSK_TCMDC: Inhibition of Plasmodium falciparum 3D7 in whole red blood cells, using parasite LDH activity as an index of growth. Test compounds present at 2uM; assay type: functional
QUANTITY: Inhibition (%)
Return type: number; implicit unit %.

Incoming: Fill in: Inhibition of CNC(=O)c1c(NC(=O)c2cccs2)sc2c1CCCC2 is ___
Outgoing: 94

Incoming: Fill in: Inhibition of O=c1ccc2ccc(O)c(O)c2o1 is ___
Outgoing: 85

Incoming: Fill in: Inhibition of CCCN1CCC(c2c[nH]c3ccc(NC(=O)Nc4cccc(Cl)c4Cl)cc23)CC1 is ___
Outgoing: 100

Incoming: Fill in: Inhibition of Cc1cccc(Oc2cccc3[nH]nc(N)c23)c1 is ___
Outgoing: 85

---

system: Plasmodium falciparum; assay: GSK_TCMDC: Inhibition of Plasmodium falciparum 3D7 in whole red blood cells, using parasite LDH activity as an index of growth. Test compounds present at 2uM; type: functional
QUANTITY: Inhibition (%)
Return type: number; implicit unit %.

Incoming: Identify the measured Inhibition of COc1ccc(-c2ccc(CNC(=O)c3ccc(C#N)cc3)c(F)c2)cc1CN1CCCN(C)CC1.O=C(O)C(F)(F)F for Plasmodium falciparum.
Outgoing: 90

Incoming: Identify the measured Inhibition of N#CCOc1c(C2CCN(CCCCNC(=O)c3ccc(-c4ccc(C(F)(F)F)cc4)cc3)CC2)ccc2c1CCCC2 for Plasmodium falciparum.
Outgoing: 97

Incoming: Identify the measured Inhibition of COc1cccc(C(=O)Nc2nonc2-c2ccc(OC)c(OC)c2)c1 for Plasmodium falciparum.
Outgoing: 97

Incoming: Identify the measured Inhibition of CCc1ccc(CN2CCC(CNC(=O)c3cc(-c4ccccc4F)cs3)C2)cc1.O=C(O)C(F)(F)F (stereo not drawn) for Plasmodium falciparum.
Outgoing: 100

Incoming: Identify the measured Inhibition of Cc1cc(N[C@@H](CC(C)C)C(=O)NCc2cccc(F)c2)nc(NCCc2ccccc2)n1.O=C(O)C(F)(F)F for Plasmodium falciparum.
Outgoing: 88

Incoming: Identify the measured Inhibition of CCCC(C)NC(=O)[C@H](Cc1ccccc1)NC(=O)c1ccc(O)c(-c2ccc(OC)cc2)c1 (stereo partly drawn) for Plasmodium falciparum.
Outgoing: 85

Incoming: Identify the measured Inhibition of CCCCN1CCN(CC(O)CNC(=O)Nc2ccc(Cl)cc2)CC1.O=C(O)C(F)(F)F (stereo not drawn) for Plasmodium falciparum.
Outgoing: 100

Incoming: Identify the measured Inhibition of O=C(COc1ccccc1Cl)N1CCc2cc3nccc(N4CCN5CCC[C@H]5C4)c3cc21 for Plasmodium falciparum.
Outgoing: 91

Incoming: Identify the measured Inhibition of CC(=O)Nc1cccc(C(=O)Nc2ccc(-c3cccc(-c4nc5cc(C(F)(F)F)ccc5[nH]4)c3)cc2)c1 for Plasmodium falciparum.
Outgoing: 100

Incoming: Identify the measured Inhibition of NC(=O)c1cccc(C(=O)Nc2cccc(-c3csc(-c4nc5ccccc5[nH]4)c3)c2)c1 for Plasmodium falciparum.
Outgoing: 100

Incoming: Identify the measured Inhibition of O=C1C2C3SC(c4c3ccc3ccccc43)C2C(=O)N1c1ccccc1 (stereo not drawn) for Plasmodium falciparum.
Outgoing: 96

Incoming: Identify the measured Inhibition of Cc1sc2ncnc(Sc3nnc(N)s3)c2c1C for Plasmodium falciparum.
Outgoing: 100

Incoming: Identify the measured Inhibition of CCc1ccc(N2C(N)=NC(N)=NC2(C)C)cc1.Cl for Plasmodium falciparum.
Outgoing: 94
